Species: Homo sapiens
TEST DESCRIPTION: Selectivity ratio of MEC for TLR8-mediated TNFalpha production in human PBMC to MEC for TLR7-mediated IFNalpha production in human PBMC
ASSAY METRIC: Ratio
Reply with just the number.

CCCCOc1nc(N)c2c(n1)N(Cc1ccc(CCCN3CCCC3)nc1)CC(=O)N2    30

Q: Please list Ratio recorded for the compound CCCCOc1nc(N)c2c(n1)N(Cc1ccc(-c3ccc(CN4CCCC4)cc3)cc1)CC(=O)N2
A: 3.3

Q: Please list Ratio recorded for the compound CCCCOc1cc2c([nH]c(=O)c(=O)n2Cc2cccc(CN3CCCC3)c2)c(N)n1
A: 10

Q: Please list Ratio recorded for the compound CCCCNc1nc(N)c2c(n1)N(Cc1cccc(CN3CCCC3)c1)CC(=O)N2
A: 1000

Q: Please list Ratio recorded for the compound CCCCSc1nc(N)c2c(n1)N(Cc1cccc(CN3CCCC3)c1)CC(=O)N2
A: 30

====

TEST DESCRIPTION: Cmax in cynomolgus monkey at 1 mg/kg, po
Type: ADME, organism-based, Macaca fascicularis
Set-up: dose 1 mg/kg, route oral
CONDITION CONTEXT: in vivo
ASSAY METRIC: Cmax (ng/mL)
Record the value in ng/mL, omitting the unit from your answer.

Q: Please list Cmax recorded for the compound CCCCOc1nc(N)c2c(n1)N(Cc1cccc(CN3CCCC3)c1)CC(=O)N2
A: 20.7

====

TEST DESCRIPTION: Cmax in cynomolgus monkey at 2 mg/kg, po
Type: ADME, organism-based, Macaca fascicularis
Parameters: dose 2 mg/kg, route oral
CONDITION CONTEXT: in vivo
ASSAY METRIC: Cmax (ng/mL)
Record the value in ng/mL, omitting the unit from your answer.

Q: Please list Cmax recorded for the compound CCCCOc1nc(N)c2c(n1)N(Cc1cccc(CN3CCCC3)c1)CC(=O)N2 [VESATOLIMOD]
A: 66.4

====

TEST DESCRIPTION: Oral bioavailability in cynomolgus monkey at 0.3 mg/kg
Assay type: ADME, organism-based, Macaca fascicularis
CONDITION CONTEXT: in vivo
ASSAY METRIC: bioavailability (%)
Record the value in %, omitting the unit from your answer.

Q: Please list bioavailability recorded for the molecule CCCCOc1nc(N)c2c(n1)N(Cc1cccc(CN3CCCC3)c1)CC(=O)N2 [VESATOLIMOD]
A: 1.1

====

Organism: Homo sapiens
TEST DESCRIPTION: Selectivity ratio of MEC for TLR8-mediated TNFalpha production in human PBMC to MEC for TLR7-mediated IFNalpha production in human PBMC
ASSAY METRIC: Ratio
Reply with just the number.

CCCCOc1cc2c([nH]c(=O)c(=O)n2Cc2ccc(CN3CCCC3)cc2)c(N)n1    3
CCCCOc1cc2c(c(N)n1)NC(=O)CN2Cc1cccc(CN2CCCC2)c1    10
CCCCOc1nc(N)c2c(n1)N(Cc1cccc(CN3CCOCC3)c1)CC(=O)N2    3.3
Nc1nc(OCc2ccccc2)nc2c1NC(=O)CN2Cc1cccc(CN2CCCC2)c1    3.3
CCCCOc1nc(N)c2c(n1)N(Cc1ccc(CN3CCCC3)cc1)CC(=O)N2    10

Q: Please list Ratio recorded for the compound COCCOc1nc(N)c2c(n1)N(Cc1cccc(CN3CCCC3)c1)CC(=O)N2
A: 1000

Q: Please list Ratio recorded for the compound CCCCCc1nc(N)c2c(n1)N(Cc1cccc(CN3CCCC3)c1)CC(=O)N2
A: 30

Q: Please list Ratio recorded for the compound Nc1nc(OCC2CCCCC2)nc2c1NC(=O)CN2Cc1cccc(CN2CCCC2)c1
A: 3.3

====

Catalogue of Ratio readings, one per entry.
Species: Homo sapiens
TEST DESCRIPTION: Selectivity ratio of MEC for TLR8-mediated TNFalpha production in human PBMC to MEC for TLR7-mediated IFNalpha production in human PBMC
Reply with just the number.

CCCCOc1nc(N)c2c(n1)N1Cc3cccc(CN4CCCC4)c3CC1C(=O)N2 (stereo not given)    10

Q: Please list Ratio recorded for the compound CCCCCOc1nc(N)c2c(n1)N(Cc1cccc(CN3CCCC3)c1)CC(=O)N2
A: 100

Q: Please list Ratio recorded for the compound CCCCOc1nc(N)c2[nH]c(=O)c(=O)n(Cc3cccc(CN4CCCC4)c3)c2n1
A: 33

Q: Please list Ratio recorded for the compound CCCCOc1cc2c([nH]c(=O)c(=O)n2Cc2ccc(-c3ccc(CN4CCCC4)cc3)cc2)c(N)n1
A: 3

====

TARGET SYSTEM: Toll-like receptor 8 (Homo sapiens)
Sequence (Q9NR97 whole entry): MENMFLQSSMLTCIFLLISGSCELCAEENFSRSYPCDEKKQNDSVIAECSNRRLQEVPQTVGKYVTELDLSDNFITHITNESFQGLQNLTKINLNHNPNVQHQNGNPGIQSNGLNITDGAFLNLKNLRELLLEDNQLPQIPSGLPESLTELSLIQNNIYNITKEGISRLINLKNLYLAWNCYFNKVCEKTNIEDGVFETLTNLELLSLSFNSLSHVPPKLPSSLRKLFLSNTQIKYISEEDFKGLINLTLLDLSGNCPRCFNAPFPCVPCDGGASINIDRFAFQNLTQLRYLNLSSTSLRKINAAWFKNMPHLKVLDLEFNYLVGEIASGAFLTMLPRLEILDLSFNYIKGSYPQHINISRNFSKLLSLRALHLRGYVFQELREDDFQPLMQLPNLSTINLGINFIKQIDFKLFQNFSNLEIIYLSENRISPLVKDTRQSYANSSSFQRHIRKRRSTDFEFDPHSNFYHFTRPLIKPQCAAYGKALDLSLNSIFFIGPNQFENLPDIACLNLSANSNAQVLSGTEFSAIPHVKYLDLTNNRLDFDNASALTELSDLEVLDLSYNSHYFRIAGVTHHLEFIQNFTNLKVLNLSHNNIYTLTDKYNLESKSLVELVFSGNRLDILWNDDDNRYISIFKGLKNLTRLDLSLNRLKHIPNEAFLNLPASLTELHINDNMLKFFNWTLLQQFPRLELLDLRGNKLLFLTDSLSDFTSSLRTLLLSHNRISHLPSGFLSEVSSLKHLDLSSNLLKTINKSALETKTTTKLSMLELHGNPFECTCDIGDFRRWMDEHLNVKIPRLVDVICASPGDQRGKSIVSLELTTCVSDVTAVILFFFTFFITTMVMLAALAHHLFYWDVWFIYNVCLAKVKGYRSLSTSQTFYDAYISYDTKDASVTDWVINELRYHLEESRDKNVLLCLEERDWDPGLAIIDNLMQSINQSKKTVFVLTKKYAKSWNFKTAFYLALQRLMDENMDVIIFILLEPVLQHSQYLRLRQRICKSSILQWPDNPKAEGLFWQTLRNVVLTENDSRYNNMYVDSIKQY
TEST DESCRIPTION: Agonist activity at human TLR8 expressed in HEK293 cells by reporter based assay
ASSAY METRIC: EC50 (µM)
Record the value in µM, omitting the unit from your answer.

Q: Please list EC50 recorded for the compound CCCCOc1nc(N)c2c(n1)N(Cc1cccc(CN3CCCC3)c1)CC(=O)N2
A: 9

====

TEST DESCRIPTION: Half life in human liver microsomes
Type: ADME, Microsome
ASSAY METRIC: half-life (min)
Record the value in min, omitting the unit from your answer.

Q: Please list half-life recorded for the compound CCCCOc1nc(N)c2c(n1)N(Cc1cccc(CN3CCCC3)c1)CC(=O)N2
A: 30.5

====

TEST DESCRIPTION: Half life in dog liver microsomes
Format: ADME, Canis lupus familiaris, Microsome
ASSAY METRIC: half-life
Number first, unit second.

Q: Please list half-life recorded for the compound CCCCOc1nc(N)c2c(n1)N(Cc1cccc(CN3CCCC3)c1)CC(=O)N2 [VESATOLIMOD]
A: 58.6 min

====

Organism: Homo sapiens
TEST DESCRIPTION: Selectivity ratio of MEC for TLR8-mediated TNFalpha production in human PBMC to MEC for TLR7-mediated IFNalpha production in human PBMC
ASSAY METRIC: Ratio
Reply with just the number.

Example entries and their recorded answers appear below.
CCCCOc1nc(N)c2c(n1)N(Cc1ccccc1CN1CCCC1)CC(=O)N2    100
CCCCOc1nc(N)c2c(n1)N(C)C(Cc1cccc(CN3CCCC3)c1)C(=O)N2 (stereo not given)    30
CCCCOc1nc(N)c2c(n1)N(C)C(Cc1ccc(CN3CCCC3)cc1)C(=O)N2 (stereo not given)    10

Q: Please list Ratio recorded for the compound COCCOc1cc2c(c(N)n1)NC(=O)CN2Cc1ccc(CN2CCCC2)cc1
A: 10

Q: Please list Ratio recorded for the compound CCCCOc1cc2c(c(N)n1)NC(=O)CN2Cc1ccc(CN2CCCC2)cc1
A: 10

====

TEST DESCRIPTION: Cmax in cynomolgus monkey at 0.3 mg/kg, po
Format: ADME, organism-based, Macaca fascicularis
Set-up: dose 0.3 mg/kg, route oral
CONDITION CONTEXT: in vivo
ASSAY METRIC: Cmax (ng/mL)
Record the value in ng/mL, omitting the unit from your answer.

Q: Please list Cmax recorded for the molecule CCCCOc1nc(N)c2c(n1)N(Cc1cccc(CN3CCCC3)c1)CC(=O)N2
A: 4.6

====

TARGET SYSTEM: Toll-like receptor 7 (Homo sapiens)
TEST DESCRIPTION: Agonist activity at human TLR7 expressed in HEK293 cells by reporter based assay
ASSAY METRIC: EC50 (µM)
Record the value in µM, omitting the unit from your answer.

Q: Please list EC50 recorded for the molecule CCCCOc1nc(N)c2c(n1)N(Cc1cccc(CN3CCCC3)c1)CC(=O)N2
A: 0.29

====

TARGET SYSTEM: Toll-like receptor 7 (Homo sapiens) (UniProt Q9NYK1)
Sequence (whole entry): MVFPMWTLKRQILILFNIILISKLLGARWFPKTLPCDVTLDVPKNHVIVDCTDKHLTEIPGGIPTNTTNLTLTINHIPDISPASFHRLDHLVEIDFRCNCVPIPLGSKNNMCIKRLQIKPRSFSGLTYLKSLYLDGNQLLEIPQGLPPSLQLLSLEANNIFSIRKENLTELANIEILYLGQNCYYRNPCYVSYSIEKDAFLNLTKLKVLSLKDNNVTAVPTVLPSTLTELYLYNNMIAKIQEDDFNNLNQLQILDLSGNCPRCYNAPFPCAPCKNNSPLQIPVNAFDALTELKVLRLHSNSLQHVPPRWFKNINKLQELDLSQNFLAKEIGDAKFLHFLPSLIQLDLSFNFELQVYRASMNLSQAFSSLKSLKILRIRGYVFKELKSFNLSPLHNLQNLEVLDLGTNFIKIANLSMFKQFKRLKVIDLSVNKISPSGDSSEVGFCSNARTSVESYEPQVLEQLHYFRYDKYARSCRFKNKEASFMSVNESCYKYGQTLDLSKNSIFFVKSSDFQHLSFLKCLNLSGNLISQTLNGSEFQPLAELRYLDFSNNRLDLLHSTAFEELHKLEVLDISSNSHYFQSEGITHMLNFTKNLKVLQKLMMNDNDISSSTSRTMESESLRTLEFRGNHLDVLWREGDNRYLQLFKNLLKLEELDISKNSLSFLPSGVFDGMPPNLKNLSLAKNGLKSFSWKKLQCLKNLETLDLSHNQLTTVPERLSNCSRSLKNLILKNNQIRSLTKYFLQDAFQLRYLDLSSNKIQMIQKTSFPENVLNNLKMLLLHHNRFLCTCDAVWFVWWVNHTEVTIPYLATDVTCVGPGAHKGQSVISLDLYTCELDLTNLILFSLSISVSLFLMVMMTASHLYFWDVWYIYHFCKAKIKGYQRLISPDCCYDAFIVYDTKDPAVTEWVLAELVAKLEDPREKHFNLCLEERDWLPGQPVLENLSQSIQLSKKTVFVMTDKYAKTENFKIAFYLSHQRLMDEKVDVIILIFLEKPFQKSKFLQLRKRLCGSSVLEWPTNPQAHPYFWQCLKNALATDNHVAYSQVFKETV
TEST DESCRIPTION: Agonist activity at TLR7-mediated IFNalpha production in human PBMC assessed as minimum concentration of compound necessary to generate >3 fold of cytokine levels relative to control
ASSAY METRIC: MEC (nM)
Record the value in nM, omitting the unit from your answer.

Example entries and their recorded answers appear below.
CCCCOc1nc(N)c2c(n1)N(Cc1ccc(CN3CCCC3)cc1)CC(=O)N2    1
CCCCOc1nc(N)c2c(n1)N(C)C(Cc1cccc(CN3CCCC3)c1)C(=O)N2 (stereo not given)    320
CCCCOc1cc2c([nH]c(=O)c(=O)n2Cc2cccc(CN3CCCC3)c2)c(N)n1    30
CCCCCOc1nc(N)c2c(n1)N(Cc1cccc(CN3CCCC3)c1)CC(=O)N2    100
CCCCOc1nc(N)c2[nH]c(=O)n(Cc3cccc(CN4CCCC4)c3)c2n1    0.03
CCCCOc1cc2c(c(N)n1)NC(=O)CN2Cc1ccc(CN2CCCC2)cc1    30
CCCCOc1nc(N)c2c(n1)N(C)C(Cc1ccc(CN3CCCC3)cc1)C(=O)N2 (stereo not given)    1000
CCCCOc1nc(N)c2c(n1)N(Cc1cccc(CN3CCCC3)c1)C(C)C(=O)N2 (stereo not given)    300
Nc1nc(OCc2ccccc2)nc2c1NC(=O)CN2Cc1cccc(CN2CCCC2)c1    3000
CCCCOc1cc2c(c(N)n1)NC(=O)CN2Cc1cccc(CN2CCCC2)c1    300

Q: Please list MEC recorded for the compound CCCCNc1nc(N)c2c(n1)N(Cc1cccc(CN3CCCC3)c1)CC(=O)N2
A: 10

Q: Please list MEC recorded for the compound Nc1nc(OCC2CCOCC2)nc2c1NC(=O)CN2Cc1cccc(CN2CCCC2)c1
A: 10

Q: Please list MEC recorded for the compound CCCN(C)C(=O)c1nc(N)c2[nH]c(=O)c(=O)n(Cc3cccc(CN4CCCC4)c3)c2n1
A: 1000

Q: Please list MEC recorded for the compound CCC(CC)COc1nc(N)c2c(n1)N(Cc1cccc(CN3CCCC3)c1)CC(=O)N2
A: 10

Q: Please list MEC recorded for the compound CCC[C@H](C)Oc1nc(N)c2c(n1)N(Cc1cccc(CN3CCCC3)c1)CC(=O)N2
A: 3
